Recorded cytotoxicity at 70.5 h, one value per entry.
ASSAY COMMENT: Human HepG2 cell viability assay in 384 well format
Assay type: toxicity, cell-based
Parameters: dose 125 nL, time 70.5 hour; concentration not given beside the values
DETAILS: HepG2 cells, read-out: Inhibition
Response body: numeric value in %, unit text excluded.

Sample answers from the record:
CN(C)Cc1nnc(C2CCN(c3ncccc3Cl)CC2)n1C1CC1: 8.65
O=C(NCc1cc(F)cc(Br)c1)C1(O)CCSCC1: -4.03
C[C@@H]1CN(C(=O)c2ccc(C#N)nc2)C[C@@]1(O)C1CC1: 13.9
CN(Cc1ccc(Br)o1)C(=O)Nc1cccnc1: -5.06
CCc1ccsc1C(=O)N1CCN(CC(C)(C)O)CC1: -5.61
O=C(c1ccccn1)N1CCc2c(nc(-c3ccncc3)[nH]c2=O)C1: -6.64
Cc1cccc(CN2C(=O)CO[C@@H]3CN(Cc4nccn4C)C[C@H]32)c1: -3.81
CC(=O)N1[C@H](Cn2cncn2)C[C@@H]2CN(Cc3nccs3)CC[C@@H]21: 14.9

**Query** Name the recorded cytotoxicity at 70.5 h for `Cc1nc(CN2CC[C@H](OCC3CC3)[C@@H]2Cc2cccnc2)cs1` .
**Result** -1.82

**Query** Same question for `Cn1cc(CN2CC[C@H](O)[C@@H](n3ccc(=O)[nH]c3=O)CC2)cn1` please.
**Result** 12.4

**Query** Also `COC(=O)[C@@H]1Cc2ncn(C)c2CN1S(=O)(=O)c1ccc(Cl)cc1` ?
**Result** 10.2

**Query** Note, next up: `O=C(c1cccnc1)N1CCc2onc(CN3CCCC3)c2C1`
**Result** -4.02

**Query** Then COCCN1CC(O)CN(C(=O)c2ccc(SC)cc2)CC1=O (stereo not drawn) ?
**Result** -4.29

**Query** Moving on to the next molecule: `Cc1nc(N2CCOc3ccc(CO)cc3C2)c2nc(C)oc2n1`
**Result** -1.34

**Query** Try O=C1CC(c2ccccc2F)c2c(n(C3CCCC3)[nH]c2=O)N1 (stereo not drawn) next.
**Result** -7.2

**Query** Then CC1CN(C(=O)CN(Cc2ccccc2)C2CC2)CCO1 (stereo not drawn) ?
**Result** -9.67

**Query** Item: `Cc1cc2[nH]c(=O)c(=O)[nH]c2cc1S(=O)(=O)NC1CCCCC1`
**Result** -3.77

**Query** Then COCCN1CCCC(O)(CN2CCN(c3cnccn3)CC2)C1=O (stereo not drawn) ?
**Result** -3.08

**Query** Next molecule up: CS(=O)(=O)NCCN1CCOC2(CCc3ccccc32)C1 (stereo not drawn)
**Result** -7.71

**Query** What do we get for `Cc1nc(-c2cccnc2)ncc1C(=O)N1CCC(c2ncc[nH]2)CC1` ?
**Result** -3.5

**Query** Entry to check: `CN(C(=O)C1CCCCC1)[C@@H]1CCC[C@@H](N2CCOCC2)[C@@H]1O`
**Result** -11.9

**Query** Repeat for the following molecule: c1csc(-c2nc(CN3CCCC3Cn3cccn3)co2)c1 (stereo not drawn)
**Result** -75.5

**Query** Record: CN(C)CCN1CC2(CCCN(c3ccc(Cl)cn3)C2)CCC1=O (stereo not drawn)
**Result** 3.01
